Biological target: BIRC2 BIR3 (Homo sapiens, UniProt Q13490)
Sequence (Q13490 251-372): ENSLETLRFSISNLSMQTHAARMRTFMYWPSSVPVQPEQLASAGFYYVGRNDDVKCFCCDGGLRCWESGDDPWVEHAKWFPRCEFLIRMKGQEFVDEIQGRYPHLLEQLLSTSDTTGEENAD
Assay: NanoBRET cellular target engagement, single domain BIRC2 BIR3
# reported EC50; entries follow
Enter your answer as a number in nM; do not include the unit.

>>> result_value("CN[C@@H](C)C(=O)N[C@H](C(=O)N1CCC[C@H]1C(=O)N[C@@H]1CCCc2ccccc21)C1CCCCC1 [A 410099.1]")
0.4
>>> result_value("CN[C@@H](C)C(=O)N[C@H](C(=O)N1CCC[C@H]1C(=O)N[C@H]1c2ccccc2C[C@H]1OCC#CC#CCO[C@@H]1Cc2ccccc2[C@@H]1NC(=O)[C@@H]1CCCN1C(=O)[C@@H](NC(=O)[C@H](C)NC)C1CCCCC1)C1CCCCC1 [AZD5582]")
23

Below: the item to evaluate.
Give the reported EC50 for this compound. CN[C@@H](C)C(=O)N[C@H](C(=O)N1CCC[C@H]1C(=O)Nc1sc(-c2ncco2)nc1-c1ccccc1)C1CCCCC1 [CUDC-427]
54.4

====

Molecular target: BIRC3 (Homo sapiens)
Sequence (Q13489 whole entry): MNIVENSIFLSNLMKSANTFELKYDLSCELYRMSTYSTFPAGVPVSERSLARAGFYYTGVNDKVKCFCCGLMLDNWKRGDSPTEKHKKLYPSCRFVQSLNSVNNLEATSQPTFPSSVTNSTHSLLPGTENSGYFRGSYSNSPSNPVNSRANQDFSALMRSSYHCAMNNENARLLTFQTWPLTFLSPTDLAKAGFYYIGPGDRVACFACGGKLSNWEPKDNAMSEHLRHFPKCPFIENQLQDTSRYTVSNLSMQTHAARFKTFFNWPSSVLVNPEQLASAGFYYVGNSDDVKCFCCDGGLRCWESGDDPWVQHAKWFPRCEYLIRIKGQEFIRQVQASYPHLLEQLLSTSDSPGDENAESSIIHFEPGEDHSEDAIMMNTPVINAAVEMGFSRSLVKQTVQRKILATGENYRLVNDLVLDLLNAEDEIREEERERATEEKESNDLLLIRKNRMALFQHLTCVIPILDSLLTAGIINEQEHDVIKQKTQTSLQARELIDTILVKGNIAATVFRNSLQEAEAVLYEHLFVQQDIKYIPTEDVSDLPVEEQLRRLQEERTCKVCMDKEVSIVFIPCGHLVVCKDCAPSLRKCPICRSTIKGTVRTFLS
Experiment: NanoBRET cellular target engagement, full-length BIRC3
Details: Tracer KD,app ± SEM, BIRC3, full-length, n = 4
measured metric: pKd
Would you please state pKd, meaning minus log10 of the concentration in mol/L, as a bare number?

Give the reported pKd for this molecule. CNC(C)C(=O)NC(C(=O)N1CCCC1c1nc(C(=O)c2cccc(OCCOCCOCCNC(=O)CCc3ccc4n3[B-](F)(F)[N+]3=C(c5ccc[nH]5)C=CC3=C4)c2)cs1)C1CCCCC1 (stereo not shown)
6.72

====

# reported Mean, ΔTm [°C] (Supplementary Table S1); entries follow
Target: BIRC2-BIR3 domain (Homo sapiens, UniProt Q13490)
Sequence (Q13490 260-352): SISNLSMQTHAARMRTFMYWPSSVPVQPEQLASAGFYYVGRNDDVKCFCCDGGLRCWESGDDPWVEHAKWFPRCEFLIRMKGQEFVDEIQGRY
Test: Differential scanning fluorimetry (DSF)
Details: mean of n=3, difference to DMSO control
Starred links: 1 amine or outer side, 2 acyl side, 3 side chain; linkers in the order of their positions; H or OH if unused. Positions of bridges follow the written chain, without caps; N, C: chain ends. Non-standard residues stand in square brackets, D forms with d. Residues, ends and D or L forms follow the SMILES beside them. Chains are numbered I, II in the order given. Hexamethylenediamine = C(CCCN[*:2])CCN[*:1]; Dip = N[C@H](C(=O)O)C(c1ccccc1)c1ccccc1; Chg = N[C@H](C(=O)O)C1CCCCC1; NMeA = CN[C@@H](C)C(=O)O
Enter your answer as a number in °C; do not include the unit.

Some solved entries appear below for comparison.
>>> result_value("Oc1c(CN2CCCC2)cc(COCc2ccccc2)c2cccnc12")
0.3
>>> result_value("CN[C@@H](C)C(=O)N[C@H](C(=O)N1CCC[C@H]1C(=O)Nc1sc(-c2ncco2)nc1-c1ccccc1)C1CCCCC1")
10.9
>>> result_value("CN[C@@H](C)C(=O)N[C@H]1CCCC[C@H]2CC[C@@H](C(=O)N[C@@H](c3ccccc3)c3cn(CCCCc4ccc(CCCCn5cc([C@@H](NC(=O)[C@@H]6CC[C@@H]7CCCC[C@H](NC(=O)[C@H](C)NC)C(=O)N76)c6ccccc6)nn5)cc4)nn3)N2C1=O")
13.4

Give the reported Mean, ΔTm [°C] (Supplementary Table S1) for this molecule. CN[C@@H](C)C(=O)N[C@H](C(=O)N1CCC[C@H]1C(=O)N[C@H](C(=O)NCCCCCCNC(=O)[C@@H](NC(=O)[C@@H]1CCCN1C(=O)[C@@H](NC(=O)[C@H](C)NC)C1CCCCC1)C(c1ccccc1)c1ccccc1)C(c1ccccc1)c1ccccc1)C1CCCCC1 [BV-6] (I: H-[NMeA][Chg]P[Dip] / II: H-[NMeA][Chg]P[Dip]; linker I:C-II:C via Hexamethylenediamine)
9.1

====

Target: BIRC3 BIR2 (Homo sapiens, UniProt Q13489)
Sequence (Q13489 147-253): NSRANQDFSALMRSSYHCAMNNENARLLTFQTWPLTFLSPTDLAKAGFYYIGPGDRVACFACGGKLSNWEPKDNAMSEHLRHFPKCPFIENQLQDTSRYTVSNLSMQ
Assay: NanoBRET cellular target engagement, single domain BIRC3 BIR2
measured metric: EC50 (µM)
Enter your answer as a number in µM; do not include the unit.

Some solved entries appear below for comparison.
>>> result_value("CN[C@@H](C)C(=O)N[C@H](C(=O)N1CCC[C@H]1C(=O)Nc1sc(-c2ncco2)nc1-c1ccccc1)C1CCCCC1")
14.8
>>> result_value("CN[C@@H](C)C(=O)N[C@H](C(=O)N1CCC[C@H]1C(=O)N[C@@H]1CCCc2ccccc21)C1CCCCC1")
0.681
>>> result_value("CC[C@H](NC(=O)[C@H](C)NC)C(=O)N1C[C@@H](O)C[C@H]1Cc1c(-c2[nH]c3cc(F)ccc3c2C[C@@H]2C[C@H](O)CN2C(=O)[C@H](CC)NC(=O)[C@H](C)NC)[nH]c2cc(F)ccc12")
17.4
>>> result_value("CN[C@@H](C)C(=O)N[C@H]1CN(C(=O)CC(C)C)CC[C@H]2CC[C@@H](C(=O)NC(c3ccccc3)c3ccccc3)N2C1=O")
8.13

Below: the item to evaluate.
Give the reported EC50 for this compound. CN[C@@H](C)C(=O)N[C@H](C(=O)N1CCC[C@H]1C(=O)N[C@H]1c2ccccc2C[C@H]1OCC#CC#CCO[C@@H]1Cc2ccccc2[C@@H]1NC(=O)[C@@H]1CCCN1C(=O)[C@@H](NC(=O)[C@H](C)NC)C1CCCCC1)C1CCCCC1
0.0285

====

# reported Ki; entries follow
Target: BIRC2-BIR3 domain (Homo sapiens)
Experiment: Fluorescence polarization (FP) competition assay with fluorescent SMAC probe
Type: binding
Set-up: BIRC2-BIR3 domain (260–352) was expressed; His6 (N, cleaved yes); GST (N, cleaved yes); made in house; host or cells: E. coli
Settings: read-out: FP Assay K I Values
Enter your answer as a number in nM; do not include the unit.

Some solved entries appear below for comparison.
>>> result_value("CN[C@@H](C)C(=O)N[C@H](C(=O)N1CCC[C@H]1C(=O)N[C@H]1c2ccccc2C[C@H]1OCC#CC#CCO[C@@H]1Cc2ccccc2[C@@H]1NC(=O)[C@@H]1CCCN1C(=O)[C@@H](NC(=O)[C@H](C)NC)C1CCCCC1)C1CCCCC1")
2.3
>>> result_value("CN[C@@H](C)C(=O)N[C@H](C(=O)N1CCC[C@H]1C(=O)N[C@@H]1CCCc2ccccc21)C1CCCCC1")
2

Below: the item to evaluate.
Give the reported Ki for this molecule. CN[C@@H](C)C(=O)N[C@H](C(=O)N1CCC[C@H]1C(=O)Nc1sc(-c2ncco2)nc1-c1ccccc1)C1CCCCC1
2.9

====

Target: BIRC8 BIR (Homo sapiens)
Sequence (Q96P09 1-90): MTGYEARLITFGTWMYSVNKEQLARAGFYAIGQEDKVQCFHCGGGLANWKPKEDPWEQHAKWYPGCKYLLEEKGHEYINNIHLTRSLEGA
Experiment: NanoBRET cellular target engagement, single domain BIRC8 BIR
measured metric: pEC50
Would you please state pEC50, meaning minus log10 of the concentration in mol/L, as a bare number?

Some solved entries appear below for comparison.
>>> result_value("CN[C@@H](C)C(=O)N[C@H](C(=O)N1CCC[C@H]1c1nc(C(=O)c2ccc(F)cc2)cs1)C1CCCCC1 [LCL161]")
6.59
>>> result_value("CN[C@@H](C)C(=O)N[C@H](C(=O)N1CCC[C@H]1C(=O)Nc1snnc1-c1ccccc1)C1CCCCC1 [GDC-0152]")
6.84
>>> result_value("CN[C@@H](C)C(=O)N[C@H](C(=O)N1CCC[C@H]1C(=O)N[C@H]1c2ccccc2C[C@H]1OCC#CC#CCO[C@@H]1Cc2ccccc2[C@@H]1NC(=O)[C@@H]1CCCN1C(=O)[C@@H](NC(=O)[C@H](C)NC)C1CCCCC1)C1CCCCC1 [AZD5582]")
7.07
>>> result_value("CN[C@@H](C)C(=O)N[C@H]1CN(C(=O)CC(C)C)CC[C@H]2CC[C@@H](C(=O)NC(c3ccccc3)c3ccccc3)N2C1=O [AT406]")
7.16

Give the reported pEC50 for this compound. CN[C@@H](C)C(=O)N[C@H](C(=O)N1CCC[C@H]1C(=O)N[C@@H]1CCCc2ccccc21)C1CCCCC1 [A 410099.1]
6.97

Give the reported pEC50 for this compound. CC[C@H](NC(=O)[C@H](C)NC)C(=O)N1C[C@@H](O)C[C@H]1Cc1c(-c2[nH]c3cc(F)ccc3c2C[C@@H]2C[C@H](O)CN2C(=O)[C@H](CC)NC(=O)[C@H](C)NC)[nH]c2cc(F)ccc12 [Birinapant]
5.46

Give the reported pEC50 for this compound. CN[C@@H](C)C(=O)N[C@H](C(=O)N1CCC[C@H]1C(=O)Nc1sc(-c2ncco2)nc1-c1ccccc1)C1CCCCC1 [CUDC-427]
6.57

====

Biological target: BIRC2-BIR3 domain (Homo sapiens)
Assay: Differential scanning fluorimetry (DSF)
Conditions: technical replicate, first column
Starred links: 1 amine or outer side, 2 acyl side, 3 side chain; linkers in the order of their positions; H or OH if unused. Positions of bridges follow the written chain, without caps; N, C: chain ends. Non-standard residues stand in square brackets, D forms with d. Residues, ends and D or L forms follow the SMILES beside them. Chains are numbered I, II in the order given. Hexamethylenediamine = C(CCCN[*:2])CCN[*:1]; Dip = N[C@H](C(=O)O)C(c1ccccc1)c1ccccc1; Chg = N[C@H](C(=O)O)C1CCCCC1; NMeA = CN[C@@H](C)C(=O)O
Decide by ΔTm [°C] (Supplementary Table S1): equal to or exceeding 10 °C means true, less means false.

>>> label_class("Oc1c(CN2CCCC2)cc(COCc2ccccc2)c2cccnc12")
"false"
>>> label_class("CN[C@@H](C)C(=O)N[C@H](C(=O)N1CCC[C@H]1C(=O)N[C@H](C(=O)NCCCCCCNC(=O)[C@@H](NC(=O)[C@@H]1CCCN1C(=O)[C@@H](NC(=O)[C@H](C)NC)C1CCCCC1)C(c1ccccc1)c1ccccc1)C(c1ccccc1)c1ccccc1)C1CCCCC1 [BV-6] (I: H-[NMeA][Chg]P[Dip] / II: H-[NMeA][Chg]P[Dip]; linker I:C-II:C via Hexamethylenediamine)")
"false"

Dear colleague, could you confirm whether CN[C@@H](C)C(=O)N[C@H](C(=O)N1CCC[C@H]1C(=O)N[C@H]1c2ccccc2C[C@H]1OCC#CC#CCO[C@@H]1Cc2ccccc2[C@@H]1NC(=O)[C@@H]1CCCN1C(=O)[C@@H](NC(=O)[C@H](C)NC)C1CCCCC1)C1CCCCC1 has ΔTm [°C] (Supplementary Table S1) at or above 10 °C?
true

Dear colleague, could you confirm whether CN[C@@H](C)C(=O)N[C@H]1CN(C(=O)CC(C)C)CC[C@H]2CC[C@@H](C(=O)NC(c3ccccc3)c3ccccc3)N2C1=O has ΔTm [°C] (Supplementary Table S1) at or above 10 °C?
true

Dear colleague, could you confirm whether CN[C@@H](C)C(=O)N[C@H](C(=O)N1CCC[C@H]1C(=O)Nc1sc(-c2ncco2)nc1-c1ccccc1)C1CCCCC1 has ΔTm [°C] (Supplementary Table S1) at or above 10 °C?
true

Dear colleague, could you confirm whether CN[C@@H](C)C(=O)N[C@H]1CCCC[C@H]2CC[C@@H](C(=O)N[C@@H](c3ccccc3)c3cn(CCCCc4ccc(CCCCn5cc([C@@H](NC(=O)[C@@H]6CC[C@@H]7CCCC[C@H](NC(=O)[C@H](C)NC)C(=O)N76)c6ccccc6)nn5)cc4)nn3)N2C1=O has ΔTm [°C] (Supplementary Table S1) at or above 10 °C?
true
